# Test system: SK-MEL-2 melanoma
# assayOverview: NCI-60 one-dose screen, 48 h
# conditionSummary: 10 µM unless noted
The panel holds about 83,000 compounds, 20% with a hit somewhere; the sample as a whole holds those more often. Calls of active or inactive are those of the source. Rule for the calls: active = growth percent below 10; inactive = the rest.
Outcomes: true (1) (active), false (0) (inactive)

- molecule: "C=C(C)[C@@H]1CC[C@]2(C(=O)NC(C)=O)CC[C@]3(C)[C@H](CC[C@@H]4[C@@]5(C)CCCNC(C)(C)[C@@H]5CC[C@]43C)[C@@H]12"
  systemTested: "SK-MEL-2 melanoma"
  qualitativeLabel: "true (1)"
- molecule: "CS(=O)(=O)c1cccc(Nc2ncc3cc(-c4ccccc4Cl)ccc3n2)c1"
  systemTested: "SK-MEL-2 melanoma"
  qualitativeLabel: "true (1)"
- molecule: "CC1=C(C(=O)c2ccccc2)C(c2ccc3c(c2)OCO3)NC(=S)N1 (centres undefined)"
  systemTested: "SK-MEL-2 melanoma"
  qualitativeLabel: "false (0)"
- molecule: "COc1ccc(/C=C2/CCc3cc4ccc(OC)cc4[o+]c32)c(O)c1"
  systemTested: "SK-MEL-2 melanoma"
  qualitativeLabel: "false (0)"
- molecule: "Cn1cc(-c2csc(-c3cn(CCO)c4ccc(F)cc34)n2)c2cccnc21"
  systemTested: "SK-MEL-2 melanoma"
  qualitativeLabel: "false (0)"
- molecule: "Nc1ncc(-c2ccc3ncnc(N4CCc5cc(F)c(Cl)cc54)c3c2)cc1C(F)(F)F"
  systemTested: "SK-MEL-2 melanoma"
  qualitativeLabel: "false (0)"
- molecule: "O=c1c(/C=C/c2c(O)ccc3ccccc23)nnc2sc(-c3cccc([N+](=O)[O-])c3)nn12"
  systemTested: "SK-MEL-2 melanoma"
  qualitativeLabel: "false (0)"
- molecule: "COc1cccc(/C=C2\\CCc3ccccc3C2=O)c1"
  systemTested: "SK-MEL-2 melanoma"
  qualitativeLabel: "false (0)"
- molecule: "CCOC(=O)c1ccc2c(c1)c1c(C)c3cnccc3c(C)c1n2C"
  systemTested: "SK-MEL-2 melanoma"
  qualitativeLabel: "true (1)"

====

# Tested on: EKVX NSCLC
# assayOverview: NCI-60 one-dose screen, 48 h
# conditionSummary: 10 µM unless noted
# Experimental: Growth inhibition of the EKVX human Non-Small Cell Lung tumor cell line is measured as a screen for anti-cancer activity. Cells are grown in 96 well plates and exposed to the test compound for 48 hours. Compounds are tested at a single concentration, which is 10^-5 M for most compounds. The reported endpoint is percent growth (GI% or GIPRCNT), where numbers from 0 - 100% represent growth inhibition, and numbers from -100% - 0 represent cell death. […]
Compounds without any hit were thinned out: in the full panel of roughly 83,000, 20% have a hit. The source made the active and inactive calls. Rule for the calls: active = growth percent below 10; inactive = the rest.
Labels: TRUE for active, FALSE for inactive

- compound: "COc1ccc(-c2ccc(-c3ccc(C(=N)N)nc3)s2)cc1"
  systemTested: "EKVX NSCLC"
  qualitativeLabel: "FALSE"
- compound: "CCCNNC(=O)c1ccc(CNC(=O)/C=C/c2ccccc2)cc1"
  systemTested: "EKVX NSCLC"
  qualitativeLabel: "FALSE"
- compound: "COc1ccc(/C=C/C(=O)c2ccc(-n3cc(CN4CCN(c5cc6c(cc5F)c(=O)c(C(=O)O)cn6C5CC5)CC4)nn3)cc2)cc1"
  systemTested: "EKVX NSCLC"
  qualitativeLabel: "FALSE"
- compound: "CN1CCN(Cc2ccc(NC(=O)c3cncc(C#Cc4c(N)ncc5cc(F)ccc45)c3)cc2C(F)(F)F)CC1"
  systemTested: "EKVX NSCLC"
  qualitativeLabel: "FALSE"
- compound: "COc1ccc(C(=O)C2OC3=C(C(=O)CC(C)(C)C3)C2c2cccc(Oc3ccccc3)c2)cc1 (stereo not given)"
  systemTested: "EKVX NSCLC"
  qualitativeLabel: "FALSE"
- compound: "CS(=O)(=O)c1ccc(/C(=N/NC(N)=S)c2ccc(F)cc2)cc1"
  systemTested: "EKVX NSCLC"
  qualitativeLabel: "FALSE"
- compound: "CC/C(=C(/c1ccc(Cl)cc1)c1ccc(OCCCN(C)C)cc1)c1ccc(OC)cc1"
  systemTested: "EKVX NSCLC"
  qualitativeLabel: "FALSE"
- compound: "Nc1ncc(-c2ccc3ncnc(N4CCc5ccc(Cl)cc54)c3c2)cn1"
  systemTested: "EKVX NSCLC"
  qualitativeLabel: "TRUE"
- compound: "CC(CN)[C@@H]1CC[C@]2(CO)CC[C@]3(C)[C@H](CC[C@@H]4[C@@]5(C)CCC(NCCO)C(C)(C)[C@@H]5CC[C@]43C)[C@@H]12 (stereo not given in full)"
  systemTested: "EKVX NSCLC"
  qualitativeLabel: "FALSE"
- compound: "COc1cccc(C(=O)Nc2cccc(NC(=O)c3ccccn3)c2)c1"
  systemTested: "EKVX NSCLC"
  qualitativeLabel: "FALSE"
- compound: "C[C@H]1c2ccccc2CN1CCCOc1cc2c(cc1OCC1CC1)C1(CCCC1)C(N)=N2"
  systemTested: "EKVX NSCLC"
  qualitativeLabel: "FALSE"
- compound: "O=C1/C(=C/c2ccccc2)COc2ccc(O)cc21"
  systemTested: "EKVX NSCLC"
  qualitativeLabel: "FALSE"
- compound: "O=C1/C(=C/c2ccc(Br)cc2)COc2ccc(O)cc21"
  systemTested: "EKVX NSCLC"
  qualitativeLabel: "FALSE"
- compound: "CN(C)CC1C(=O)O[C@H]2[C@H]1CC/C(COC(=O)NCc1ccc(Cn3c(=O)sn(CCCI)c3=O)cc1)=C\\CC[C@@]1(C)O[C@@H]21 (stereo not given in full)"
  systemTested: "EKVX NSCLC"
  qualitativeLabel: "FALSE"
- compound: "CC(Cc1cccc2ccccc12)C(N)=O (stereo not given)"
  systemTested: "EKVX NSCLC"
  qualitativeLabel: "FALSE"
- compound: "Cc1c2ccncc2c(C)c2c1c1ccccc1n2CCCCCC(=O)O"
  systemTested: "EKVX NSCLC"
  qualitativeLabel: "FALSE"
- compound: "O=C(O)CCCN1C(=O)CSC1=S"
  systemTested: "EKVX NSCLC"
  qualitativeLabel: "FALSE"
- compound: "CN1CCN(CCCNC(=O)c2c3c(n4ccccc24)C(=O)c2ncccc2C3=O)CC1"
  systemTested: "EKVX NSCLC"
  qualitativeLabel: "FALSE"
- compound: "O=C(Nc1ncc(Cc2ccc(Cl)cc2)s1)C1=NCCCCN1"
  systemTested: "EKVX NSCLC"
  qualitativeLabel: "FALSE"
- compound: "CCN1C(=O)N(CC)C2C1NC(=S)N2/N=C/C=C/c1ccccc1 (stereo not given)"
  systemTested: "EKVX NSCLC"
  qualitativeLabel: "FALSE"
- compound: "CCN1C(=O)N(CC)C2C1NN=c1s/c(=C\\c3ccccc3)c(=O)n12 (stereo not given)"
  systemTested: "EKVX NSCLC"
  qualitativeLabel: "FALSE"
- compound: "COc1cc2ncnc(Nc3ccc(S(=O)(=O)Nc4cc(C)on4)cc3)c2cc1OCCCN1CCOCC1"
  systemTested: "EKVX NSCLC"
  qualitativeLabel: "FALSE"
- compound: "CN1CCN(Cc2ccc(NC(=O)c3cncc(C#Cc4c(N)ncc5c(F)cccc45)c3)cc2C(F)(F)F)CC1"
  systemTested: "EKVX NSCLC"
  qualitativeLabel: "FALSE"
- compound: "CC(C)CCc1nc2ccc(NCc3ccc(OCCN4CCC(C)CC4)cc3)cc2[nH]1"
  systemTested: "EKVX NSCLC"
  qualitativeLabel: "FALSE"
- compound: "C#CCOc1ccc(C2=NN(C)C3N=C(Cl)c4ncn(C)c4N23)cc1OCC#C (stereo not given)"
  systemTested: "EKVX NSCLC"
  qualitativeLabel: "FALSE"
- compound: "CCOC(=O)C#Cc1c(CC(=O)OCC)nnn1[C@H]1O[C@@H](CO)[C@@H]2OC(C)(C)O[C@@H]21"
  systemTested: "EKVX NSCLC"
  qualitativeLabel: "FALSE"
- compound: "CC1=C(C(=O)c2ccccc2)C(c2ccc3c(c2)OCO3)NC(=S)N1 (stereo not given)"
  systemTested: "EKVX NSCLC"
  qualitativeLabel: "FALSE"
- compound: "CCN(CC)CCOc1ccc(/C(=C(\\C)Cc2ccc(OC)cc2)c2ccc(O)cc2)cc1"
  systemTested: "EKVX NSCLC"
  qualitativeLabel: "FALSE"
- compound: "Cc1ccc2c(c1)CC(O)CC1C(=O)N(CCO)CC(=O)N21 (stereo not given)"
  systemTested: "EKVX NSCLC"
  qualitativeLabel: "FALSE"
- compound: "CN1C(=O)N(C)C2C1NN=c1s/c(=C\\c3ccccc3F)c(=O)n12 (stereo not given)"
  systemTested: "EKVX NSCLC"
  qualitativeLabel: "FALSE"
- compound: "N=C(N)c1ccc(-c2ccc(-c3ccc(Cl)cc3Cl)s2)nc1"
  systemTested: "EKVX NSCLC"
  qualitativeLabel: "FALSE"
- compound: "COc1cc2c(c(OC)c1OC)C(=O)CC(c1cccc(C(=O)Nc3ccc(Br)cc3)c1)O2 (stereo not given)"
  systemTested: "EKVX NSCLC"
  qualitativeLabel: "FALSE"
- compound: "O=C(CN1C(=O)NC2NC(=O)NC21)N/N=C/c1cccc([N+](=O)[O-])c1 (stereo not given)"
  systemTested: "EKVX NSCLC"
  qualitativeLabel: "FALSE"
- compound: "COc1ccc(/C=C\\c2cc(OC)c(OC)c(OC)c2)cc1OCC(=O)Nc1nc2ccccc2s1"
  systemTested: "EKVX NSCLC"
  qualitativeLabel: "FALSE"
- compound: "Nc1c(C(=O)c2ccc(Cl)cc2)sc(Nc2ccccc2)c1-c1nc2ccccc2s1"
  systemTested: "EKVX NSCLC"
  qualitativeLabel: "FALSE"
- compound: "COC(=O)c1c(C(=O)OC)c2ccc3c4ncccc4ccc3n2c1C(=O)c1ccc(C)cc1"
  systemTested: "EKVX NSCLC"
  qualitativeLabel: "FALSE"
- compound: "Cc1csc(Nc2nc(-c3cccc(Cl)c3)nc(C(Cl)(Cl)Cl)n2)n1"
  systemTested: "EKVX NSCLC"
  qualitativeLabel: "TRUE"
- compound: "O=C(O)/C=C/c1cn(-c2ccccc2)nc1-c1ccc(F)cc1"
  systemTested: "EKVX NSCLC"
  qualitativeLabel: "FALSE"
- compound: "CCOC(=O)C1=C(c2ccccc2)N=C2SC=C(c3cccc([N+](=O)[O-])c3)N2C1c1ccc(O)cc1 (stereo not given)"
  systemTested: "EKVX NSCLC"
  qualitativeLabel: "FALSE"
- compound: "CC(=O)CC(=O)c1ccccc1.[Cu+2]"
  systemTested: "EKVX NSCLC"
  qualitativeLabel: "FALSE"

Provenance of the data: PubChem BioAssay (NCI)
